compounds and their reported ED50
Tested on: Rattus norvegicus
experimentalDetails: Antianaphylactic activity against IgE-mediated rat passive cutaneous anaphylaxis (PCA) model after intraperitoneal administration.
Assay type: functional
details: ip

compound | assayedSystem | ED50
COCCOC(=O)C(=O)Nc1nc(-c2cc(Br)no2)cs1 | Rattus norvegicus | 7 mg/kg
O=C(O)C(=O)Nc1nc(-c2cc(Br)no2)cs1 | Rattus norvegicus | 3 mg/kg
CCOC(=O)C(=O)Nc1nc(-c2cc(C)no2)cs1 | Rattus norvegicus | 0.2 mg/kg
CCOCCOC(=O)C(=O)Nc1nc(-c2cc(Cl)no2)cs1 | Rattus norvegicus | 6 mg/kg
COc1cc(-c2csc(NC(=O)C(=O)O)n2)on1.NCCO | Rattus norvegicus | 1.2 mg/kg
NCCCC[C@H](N)C(=O)O.O=C(O)C(=O)Nc1nc(-c2cc(-c3ccccc3)no2)cs1 | Rattus norvegicus | 0.24 mg/kg
NCCO.O=C(O)C(=O)Nc1nc(-c2cc(-c3ccccc3)on2)cs1 | Rattus norvegicus | 0.23 mg/kg
CCOCCOC(=O)C(=O)Nc1nc(-c2c(-c3ccccc3)noc2C)cs1 | Rattus norvegicus | > 10 mg/kg
NCCO.O=C(O)C(=O)Nc1nc(-c2conc2-c2c(F)cccc2Cl)cs1 | Rattus norvegicus | 30 mg/kg
NCCO.O=C(O)C(=O)Nc1nc(-c2cc(Cl)no2)cs1 | Rattus norvegicus | > 30 mg/kg
O=C([O-])c1cc(=O)c2c(OCC(O)COc3cccc4oc(C(=O)[O-])cc(=O)c34)cccc2o1.[Na+].[Na+] [CROMOLYN SODIUM] | Rattus norvegicus | 12 mg/kg
NCCO.O=C(O)C(=O)Nc1nc(-c2cc(CO)on2)cs1 | Rattus norvegicus | > 100 mg/kg
NCCO.O=C(O)C(=O)Nc1nc(-c2cc(CO)no2)cs1 | Rattus norvegicus | 0.007 mg/kg
CC(C)(C)OC(=O)C(=O)Nc1nc(-c2cc(-c3ccccc3)no2)cs1 | Rattus norvegicus | 9 mg/kg
CCOCCOC(=O)C(=O)Nc1nc(-c2cc(OCc3ccccc3)no2)cs1 | Rattus norvegicus | 3.7 mg/kg

---

System: Rattus norvegicus
experimentalDetails: Antianaphylactic activity against IgE-mediated rat passive cutaneous anaphylaxis (PCA) model after intraperitoneal administration.
Type: functional
details: ip
molecules and their reported ED50
measuredMetric: ED50 (mg/kg)

molecule | qual | recordedMeasurement
CCOCCOC(=O)C(=O)Nc1nc(-c2cc(CO)on2)cs1 | = | 1.8
NCCO.O=C(O)C(=O)Nc1nc(-c2cc(-c3ccccc3)no2)cs1 | = | 0.24
CCOCCOC(=O)C(=O)Nc1nc(-c2conc2C)cs1 | > | 100
NCCCC[C@H](N)C(=O)O.O=C(O)C(=O)Nc1nc(-c2cc(Br)no2)cs1 | = | 0.5
CCOCCOC(=O)C(=O)Nc1nc(-c2cc(C)on2)cs1 | = | 1.3
CCOCCOC(=O)C(=O)Nc1nc(-c2cc(C)no2)cs1 [ASOBAMAST] | = | 0.04
Cc1cc(-c2csc(NC(=O)C(=O)O)n2)on1.NCCCC[C@H](N)C(=O)O | = | 0.3
NCCCC[C@H](N)C(=O)O.O=C(O)C(=O)Nc1nc(-c2conc2-c2ccccc2)cs1 | > | 100
CCOCCOC(=O)C(=O)Nc1nc(-c2cc(C(=O)OCC)no2)cs1 | = | 0.08
CCOCCOC(=O)C(=O)Nc1nc(-c2cc(COC)no2)cs1 | = | 2.4

Data origin: ChEMBL document CHEMBL1125874
